Reported pKd by item:
Test Target: DLG2_3, Q15700
Experiment Notes: holdup assay
Parameters: key: below the threshold = too weak to quantify, mostly under pKd 3.1 to 4
Condition Parameters: plain residues with an end cap or a label only (N-terminal biotin on a linker: ahx)
# answer = number (no unit)

The reported pKd of the binder LSDPSVSTVV [GRIN1, Q05586;Q05586-2] was 4.26

Lab note: measured pKd of RRRKRKRTYL [HPV49-L2, P36762] was 3.54

# pKd (binder: HNAFLSVTTV [PDZRN4, Q6ZMN7] ) is 3.53

# pKd (binder: GYDWGPATDL [TJP3, O95049] ) is 3.52

The binder identified as TVICWPGSLV [LNX2, Q8N448] registered its pKd at 4.24
